Data provenance: the supplement of paper PMC11451515

Assignment: determine reported cell viability for the given compounds.
System: P12-Ichikawa
Assay: cell viability relative to DMSO control; higher = less cytotoxic
Conditions: HPLM + 10% dialyzed FBS; 48 h; 0.19 µM
Just the number please, in %, no unit attached.

(Q) Recorded cell viability for NC/1=N/C(=O)N(/C=C1)[C@H]2CC[C@@H](CO)O2 with P12-Ichikawa, please?
(A) 102

(Q) Recorded cell viability for CC1OC(OC/2=C(/OC3=C(C(=CC(=C3)O)O)C2=O)C4=CC=C(O)C=C4)C(O)C(OC(C)=O)C1OC(C)=O (stereo not drawn) with P12-Ichikawa, please?
(A) 108

(Q) Recorded cell viability for CN1[C@@H]2CC(O)C[C@H]1[C@@H]1O[C@@H]12 (stereo partly drawn) with P12-Ichikawa, please?
(A) 115

(Q) Recorded cell viability for C[C@@]12OC(=O)[C@@]1(NC(=O)[C@@H]2CCCl)[C@@H](O)[C@H]\3CCC\C=C3 with P12-Ichikawa, please?
(A) 74.8

(Q) Recorded cell viability for CC1=C(/C=C/C(C)=C/C=C/C(C)=C/C(=O)Nc2ccc(O)cc2)C(C)(C)CCC1 with P12-Ichikawa, please?
(A) 91.8

(Q) Recorded cell viability for CN(C)c1ccc(C(=O)NCCCCCCC(=O)NO)cc1 with P12-Ichikawa, please?
(A) 111

(Q) Recorded cell viability for CN[C@@H](C)C(=O)N[C@H]1CCCC[C@H]2CC[C@@H](C(=O)N[C@@H](c3ccccc3)c3cn(CCCCc4ccc(CCCCn5cc([C@@H](NC(=O)[C@@H]6CC[C@@H]7CCCC[C@H](NC(=O)[C@H](C)NC)C(=O)N76)c6ccccc6)nn5)cc4)nn3)N2C1=O with P12-Ichikawa, please?
(A) 99.8

(Q) Recorded cell viability for C[Se]CCC(N)C(=O)O (stereo not drawn) with P12-Ichikawa, please?
(A) 85.1
